Dmax listing for selected molecules.
- Test Target: SMARCA2 (Homo sapiens, UniProt P51531)
- Construct: endogenous in cells
- Sequence (P51531 whole entry, species assumed): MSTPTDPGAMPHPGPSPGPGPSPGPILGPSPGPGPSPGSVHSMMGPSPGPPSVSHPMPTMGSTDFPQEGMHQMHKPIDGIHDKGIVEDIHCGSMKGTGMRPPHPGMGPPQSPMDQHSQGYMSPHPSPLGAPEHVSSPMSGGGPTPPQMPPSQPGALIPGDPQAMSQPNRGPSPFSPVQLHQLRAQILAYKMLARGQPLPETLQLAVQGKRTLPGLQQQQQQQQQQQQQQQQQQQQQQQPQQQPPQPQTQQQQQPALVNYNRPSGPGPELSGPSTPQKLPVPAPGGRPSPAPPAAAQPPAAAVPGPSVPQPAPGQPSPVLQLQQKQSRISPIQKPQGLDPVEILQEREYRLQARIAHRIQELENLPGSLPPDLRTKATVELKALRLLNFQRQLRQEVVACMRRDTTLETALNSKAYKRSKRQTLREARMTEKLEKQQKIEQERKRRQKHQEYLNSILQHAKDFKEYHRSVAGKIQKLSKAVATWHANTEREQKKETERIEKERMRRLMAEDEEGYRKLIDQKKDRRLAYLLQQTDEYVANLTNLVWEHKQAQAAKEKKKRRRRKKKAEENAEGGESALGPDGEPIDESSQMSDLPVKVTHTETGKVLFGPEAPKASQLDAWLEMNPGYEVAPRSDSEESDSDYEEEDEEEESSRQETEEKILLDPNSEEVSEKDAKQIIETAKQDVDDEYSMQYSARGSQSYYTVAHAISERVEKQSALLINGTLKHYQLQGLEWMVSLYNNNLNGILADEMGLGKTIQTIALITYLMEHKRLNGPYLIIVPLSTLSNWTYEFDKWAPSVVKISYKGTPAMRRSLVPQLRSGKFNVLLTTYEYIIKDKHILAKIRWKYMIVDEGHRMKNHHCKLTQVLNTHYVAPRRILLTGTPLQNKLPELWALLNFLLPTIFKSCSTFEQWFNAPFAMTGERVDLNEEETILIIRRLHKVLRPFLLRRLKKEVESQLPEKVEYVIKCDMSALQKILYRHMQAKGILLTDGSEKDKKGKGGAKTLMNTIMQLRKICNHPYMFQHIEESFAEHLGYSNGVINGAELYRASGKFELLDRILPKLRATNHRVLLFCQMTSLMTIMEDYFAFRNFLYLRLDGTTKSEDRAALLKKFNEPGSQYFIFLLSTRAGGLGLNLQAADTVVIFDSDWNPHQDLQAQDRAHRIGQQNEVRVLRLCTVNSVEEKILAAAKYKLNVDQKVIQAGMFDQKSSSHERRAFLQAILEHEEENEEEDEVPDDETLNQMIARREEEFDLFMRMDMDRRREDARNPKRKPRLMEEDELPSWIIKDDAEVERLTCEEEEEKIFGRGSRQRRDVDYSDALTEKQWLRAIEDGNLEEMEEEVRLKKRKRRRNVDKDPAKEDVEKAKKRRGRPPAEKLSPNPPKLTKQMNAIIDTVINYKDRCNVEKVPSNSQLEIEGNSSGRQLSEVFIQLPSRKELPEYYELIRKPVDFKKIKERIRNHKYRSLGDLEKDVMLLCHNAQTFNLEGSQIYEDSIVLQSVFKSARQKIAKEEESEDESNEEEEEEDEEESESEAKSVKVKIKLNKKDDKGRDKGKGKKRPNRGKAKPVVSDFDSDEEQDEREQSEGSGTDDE
- Method Notes: SMARCA2 Cellular Degradation Assay (Western blot analysis on Jess platform)
- Type: cell-based
- Run Conditions: cellular degradation

**Query** Look at this molecule and give its reported Dmax. CN(C(=O)C1(c2cnn(C)c2)CCN(c2cnnc(-c3ccccc3O)c2)CC1)C1CCN(C2COC3(CCN(c4ccc([C@H]5CCC(=O)NC5=O)cc4)CC3)C2)CC1 (mixture of isomers)
**Result** 81.3%

**Query** Which measured Dmax value corresponds to O=C1CCC(c2ccc(OCC3CCN(C(=O)C4(c5ccccc5)CCN(c5cnnc(-c6ccccc6O)c5)CC4)CC3)cc2)C(=O)N1 (racemic) ?
**Result** 59.8%

We next turn to a different molecule, shown below.
**Query** For O=C1CC[C@H](c2ccc(N3CCC(CN4CCC(NC(=O)C5(C6CCOCC6)CCN(c6cnnc(-c7ccccc7O)c6)CC5)CC45CCC5)CC3)cc2)C(=O)N1 (stereo partly shown) , what is its reported Dmax?
**Result** 70.8%

* * *

Documented Dmax across a set of molecules
- Test Target: SMARCA2 (Homo sapiens, UniProt P51531)
- Construct: endogenous in cells
- Method Notes: SMARCA2 Cellular Degradation Assay (Western blot analysis on Jess platform)
- Format: cell-based
- Run Conditions: cellular degradation
Response body: numeric value in %, unit text excluded.

Example entries and their recorded answers appear below.
**Query** # Dmax lookup, item CC(N[C@H]1CC[C@@H](NC(=O)C2(c3ccccc3)CCN(c3cnnc(-c4ccccc4O)c3)CC2)CC1)C1CCN(c2ccc([C@H]3CCC(=O)NC3=O)cn2)CC1 (mixture of isomers)
**Result** 76.8

**Query** Which Dmax is reported for this molecule? O=C1CCC(Nc2ccc(C3CCN(CC(=O)N4CCC5(CC4)CN(C(=O)C4(c6ccccc6)CCN(c6cnnc(-c7ccccc7O)c6)CC4)C5)CC3)cc2)C(=O)N1 (racemic)
**Result** 66.5

**Query** Any idea what its Dmax is? The molecule is O=C1CC[C@H](c2ccc(N3CCC(CN4CCC5(C4)CN(C(=O)C4(c6ccccc6)CCN(c6cnnc(-c7ccccc7O)c6)CC4)C5)CC3)cc2)C(=O)N1
**Result** 78

Continuing:
**Query** Dmax lookup needed for Cn1c(=O)n(C2CCC(=O)NC2=O)c2ccc(N3CCC(CN4CCC5(CC4)CN(C(=O)C4(c6ccccc6)CCN(c6cnnc(-c7ccccc7O)c6)CC4)C5)CC3)cc21 (racemic) , thanks.
**Result** 89.5

**Query** I am curious: what Dmax value has been reported for Cc1ccnn1C1(C(=O)N(C)C2CCN(CCC3CCN(c4ccc([C@H]5CCC(=O)NC5=O)cc4)CC3)CC2)CCN(c2cnnc(-c3ccccc3O)c2)CC1 (racemic) ?
**Result** 85.8

* * *

- Test Target: SMARCA2 (Homo sapiens)
- Construct: endogenous in cells
- Method Notes: SMARCA2 Cellular Degradation Assay (Western blot analysis on Jess platform)
- Type: cell-based
- Run Conditions: cellular degradation
Assay Metric: DC50 (nM)
Kindly answer with a numeric value in nM, unit omitted.

**Query** Query: DC50; subject: COC1(C(=O)N(C)C2CCN(CCC3CCN(c4ccc([C@H]5CCC(=O)NC5=O)cc4)CC3)CC2)CCN(c2cnnc(-c3ccccc3O)c2)CC1
**Result** 14

**Query** // returns reported DC50 for input O=C1CCC(c2ccc(N3CCC(F)(CN4CCC(NC(=O)C5(c6ccccc6)CCN(c6cnnc(-c7ccccc7O)c6)CC5)CC4)CC3)cc2)C(=O)N1 (racemic)
**Result** 17.9

**Query** State the recorded DC50 for this entry: O=C1CC[C@@H](c2ccc(C3CCN(CC(=O)N4C[C@@H]5[C@H](C4)[C@H]5C(=O)NCC4(c5ccccc5)CCN(c5cnnc(-c6ccccc6O)c5)CC4)CC3)cc2)C(=O)N1 (racemic)
**Result** 11

**Query** DC50 lookup needed for O=C1CCC(c2ccc(N3CCC(CCN4CC5(C4)CN(C(=O)C4(c6cc7ccccn7n6)CCN(c6cnnc(-c7ccccc7O)c6)CC4)C5)CC3)cc2)C(=O)N1 (racemic) , thanks.
**Result** 14.2

**Query** Look up DC50: O=C1CCC(c2ccc(N3CC[C@H](CCN4CC5(C4)CN(C(=O)C4(c6ccccc6)CCN(c6cnnc(-c7ccccc7O)c6)CC4)C5)C3)nc2)C(=O)N1 (mixture of isomers)
**Result** 19.6

**Query** Which DC50 value is on record for O=C1CC[C@@H](c2ccc(N3CCN(CC4=NO[C@@H]5CN(C(=O)C6(c7ccccc7)CCN(c7cnnc(-c8ccccc8O)c7)CC6)C[C@H]45)CC3)cc2)C(=O)N1 (racemic) ?
**Result** 45.8

**Query** Which DC50 reading was recorded for the molecule COc1ccccc1C1(C(=O)N(C)C2CCN(CC3CCN(c4ccc([C@H]5CCC(=O)NC5=O)cc4)CC3)CC2)CCN(c2cnnc(-c3ccccc3O)c2)CC1 ?
**Result** 2.5

**Query** I'd like to know its DC50. The molecule in question is CN(C(=O)C1(c2ccnn2C)CCN(c2cnnc(-c3ccccc3O)c2)CC1)C1CCN(CCC2CCN(c3ccc(C4CCC(=O)NC4=O)cc3)CC2)CC1 (racemic)
**Result** 2.79

Continuing:
**Query** Would you kindly share the measured DC50 for Cn1ccc(C2(C(=O)N3CC4(CN(CC5CCN(c6ccc(C7CCC(=O)NC7=O)cc6)CC5)C4)C3)CCN(c3cnnc(-c4ccccc4O)c3)CC2)n1 (racemic) ?
**Result** 6.7

**Query** Which DC50 reading was recorded for the molecule O=C1CC[C@H](c2ccc(N3CCC(CN4CCC(NC(=O)C5(C6CCOCC6)CCN(c6cnnc(-c7ccccc7O)c6)CC5)CC45CCC5)CC3)cc2)C(=O)N1 (some centres unmarked) ?
**Result** 31.9

**Query** Look up DC50 for this molecule: CN(C(=O)C1(c2cc3ccccn3n2)CCN(c2cnnc(-c3ccccc3O)c2)CC1)C1CCN(CCC2CCN(c3ccc(C4CCC(=O)NC4=O)cc3)CC2)CC1 (racemic)
**Result** 4.12
